The values you see were collected from patent US5958906A.

assay: LD50 on single administration per os in the mouse; settings: in vivo, po

- molecule: "CCCCCCCC/C=C\\CCCCCCCCCCCCOP(=O)([O-])OCC[As+](C)(C)C [Example 3]"
  LD50: "> 1470 mg/kg"

---

Tested on: KB cells
Assay: Soft-Agar-Colony-Assay with KB cells in vitro
Format: cell-based
Conditions: Homo sapiens, colony formation inhibited up to 90%, effective criterion EC90 <10 μg/ml
Method: Tests with KB cells were carried out as a Soft-Agar-Colony-Assay in accordance with Salmon and Hamburger, N. Engl. Values exceeding 100 indicate tumor regressions in relation to the starting size of the tumor. […] Values below 0 indicate that the tumor growth was stimulated. KB in vivo represents a tumor model in which KB cells are transplanted subcutaneously into naked NMRI mice. […]
Let's look at some compounds and their measured IC90.
readout.type: IC90 (µg/mL)

- compound: "CCCCCCCCCCCCCCCCCCCCOP(=O)([O-])OCC[P+](C)(C)C [Example 17]"
  study.system: "KB cells"
  qualifier.sign: "="
  test.value: 3
- compound: "CCCCCCCCCCCCCCCCCCOP(=O)([O-])OCCC[P+](C)(C)C [Example 14]"
  study.system: "KB cells"
  qualifier.sign: "="
  test.value: 3
- compound: "CCCCCCCC/C=C\\CCCCCCCCCCCCOP(=O)([O-])OCC[P+](C)(C)C [Example 6]"
  study.system: "KB cells"
  qualifier.sign: ">"
  test.value: 10
